// values below are reported Kd
Molecular target: T1, EsCas13d, nuclease-dead (Eubacterium siraeum, UniProt B0MS50, R295A;H300A;R849A;H854A)
T1 sequence: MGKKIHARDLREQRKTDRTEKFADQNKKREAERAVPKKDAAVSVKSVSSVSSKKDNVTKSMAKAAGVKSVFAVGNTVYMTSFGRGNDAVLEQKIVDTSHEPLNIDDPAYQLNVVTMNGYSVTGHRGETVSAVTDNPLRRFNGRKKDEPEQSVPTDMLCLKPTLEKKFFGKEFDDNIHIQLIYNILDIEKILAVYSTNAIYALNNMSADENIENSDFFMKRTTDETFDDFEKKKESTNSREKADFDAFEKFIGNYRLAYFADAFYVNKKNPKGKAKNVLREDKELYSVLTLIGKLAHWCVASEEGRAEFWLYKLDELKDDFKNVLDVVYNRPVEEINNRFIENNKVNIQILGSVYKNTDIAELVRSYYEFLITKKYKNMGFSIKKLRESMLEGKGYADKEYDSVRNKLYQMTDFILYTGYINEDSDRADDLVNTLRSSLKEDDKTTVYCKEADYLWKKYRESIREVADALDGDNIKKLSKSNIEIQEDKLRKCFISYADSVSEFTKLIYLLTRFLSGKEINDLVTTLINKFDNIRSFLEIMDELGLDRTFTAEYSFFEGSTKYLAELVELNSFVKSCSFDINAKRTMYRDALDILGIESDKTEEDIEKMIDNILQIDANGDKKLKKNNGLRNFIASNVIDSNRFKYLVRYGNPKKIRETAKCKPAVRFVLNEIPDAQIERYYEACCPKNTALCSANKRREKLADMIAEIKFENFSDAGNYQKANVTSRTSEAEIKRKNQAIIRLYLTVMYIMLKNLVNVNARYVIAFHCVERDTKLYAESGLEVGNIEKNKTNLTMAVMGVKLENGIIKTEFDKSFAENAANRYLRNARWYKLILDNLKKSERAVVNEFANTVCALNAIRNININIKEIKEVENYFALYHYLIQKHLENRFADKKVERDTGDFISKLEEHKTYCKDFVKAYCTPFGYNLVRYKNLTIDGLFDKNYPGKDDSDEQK
Assay: crRNA (strand 1, pre-loaded); Mg2+; 40 mM Tris-HCl pH 7.5, 150 mM NaCl, 6 mM MgCl2, 1 mM DTT, 0.1% Tween-20, 0.2 mg/ml BSA; 25 C; 10 min per concentration, then washed
Conditions: tags: His6-TwinStrep-SUMO cleaved; N-terminal SNAP kept (SNAP-Surface 488); label: 3' end held by stalled T7 RNA polymerase
Reported Property: Kd (nM)

[[record]]
binder = "target 2 MT 5'PFS AGC 3'PFS UGC (mixed) RNA 1: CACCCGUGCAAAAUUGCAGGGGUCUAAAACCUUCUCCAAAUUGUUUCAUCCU RNA 2: GGGAAUGGAUCCACAUCUACGAAUUCAGCAGGAUGAAACAAUUUGGAGAAGUGCAGAUCGGAAGAGCACACGU"
reported_property = "Kd"
recorded_measurement = 8.2

[[record]]
binder = "target 3 C1G,G4U (mixed) RNA 1: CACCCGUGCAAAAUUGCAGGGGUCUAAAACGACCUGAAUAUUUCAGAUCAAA RNA 2: GGGAAUGGAUCCACAUCUACGAAUUCGUUUUUGAUCUGAAAUAUUCAUGUGUGCAGAUCGGAAGAGCACACGU"
reported_property = "Kd"
recorded_measurement = 13.4

[[record]]
binder = "target 1 G13C,C22U (mixed) RNA 1: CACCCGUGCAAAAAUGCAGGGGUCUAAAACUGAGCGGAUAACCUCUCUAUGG RNA 2: GGGAAUGGAUCCACAUCUACGAAUUCGUAUCAUAGAGACGUUAUCCGCUCACCGAGAUCGGAAGAGCACACGU"
reported_property = "Kd"
recorded_measurement = 62

[[record]]
binder = "target 2 MT 5'PFS CGC 3'PFS CAG (mixed) RNA 1: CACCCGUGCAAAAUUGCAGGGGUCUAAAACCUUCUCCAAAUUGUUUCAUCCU RNA 2: GGGAAUGGAUCCACAUCUACGAAUUCCGCAGGAUGAAACAAUUUGGAGAAGCAGAGAUCGGAAGAGCACACGU"
reported_property = "Kd"
recorded_measurement = 3.6

[[record]]
binder = "target 3 G4C,U22C (mixed) RNA 1: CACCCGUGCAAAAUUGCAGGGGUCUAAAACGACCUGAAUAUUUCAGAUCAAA RNA 2: GGGAAUGGAUCCACAUCUACGAAUUCGUUCUUGAUCUGAAAUAUUCACGUCUGCAGAUCGGAAGAGCACACGU"
reported_property = "Kd"
recorded_measurement = 13

[[record]]
binder = "target 1 G12U,U19A (mixed) RNA 1: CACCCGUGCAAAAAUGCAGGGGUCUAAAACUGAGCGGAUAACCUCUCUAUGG RNA 2: GGGAAUGGAUCCACAUCUACGAAUUCGUACCAAAGAGAGUUUAUCCGCUCACCGAGAUCGGAAGAGCACACGU"
reported_property = "Kd"
recorded_measurement = 52

[[record]]
binder = "target 1 C6G,C21A (mixed) RNA 1: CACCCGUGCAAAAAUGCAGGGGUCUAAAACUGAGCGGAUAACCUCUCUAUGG RNA 2: GGGAAUGGAUCCACAUCUACGAAUUCGUACAAUAGAGAGGUUAUCGGCUCACCGAGAUCGGAAGAGCACACGU"
reported_property = "Kd"
recorded_measurement = 24.3


Attribution: paper PMC10786891
